# Test system: MDA-MB-468 breast
# Test summary: NCI-60 one-dose screen, 48 h
# Experimental setup: 10 µM unless noted
# Procedure: Growth inhibition of the MDA-MB-468 human Breast tumor cell line is measured as a screen for anti-cancer activity. Cells are grown in 96 well plates and exposed to the test compound for 48 hours. Compounds are tested at a single concentration, which is 10^-5 M for most compounds. The reported endpoint is percent growth (GI% or GIPRCNT), where numbers from 0 - 100% represent growth inhibition, and numbers from -100% - 0 represent cell death. […]
Compounds without any hit were thinned out: in the full panel of roughly 83,000, 20% have a hit. The source made the active and inactive calls. The calls were made as follows: active = growth percent below 10; inactive = the rest.
Can you answer with just one of these options? Yes for active, No for inactive

Look over these answered cases.
Could you check what this test reported for `Cc1cc(N2CCN(CC(=O)Nc3ccc4c(ccn4Cc4ccccc4)c3)CC2)nc(N2CCOCC2)n1` ? No

Cool, now `Cc1nc(Nc2cn[nH]c2C(=O)Nc2ccc(CN3CCN(C)CC3)cc2)c2ccsc2n1` No

For `COc1ccccc1C(=O)O/N=C(\N)Cc1cccc2ccccc12` then? No

And the next one, `CC(=O)Nc1ccc(-c2cc3c(NCc4ccc(F)cc4)ncnc3s2)cc1` ? No

Consider the additional compound presented here.
Could you kindly confirm the outcome this assay logged for NC1C2CCC1CN(c1cnc(C(=O)Nc3cc(F)cc4cccnc34)cn1)C2 (stereo not given) ? Yes

---

# Tested on: MDA-MB-468 breast
# Test summary: NCI-60 one-dose screen, 48 h (100 = growth as untreated, 0 = no growth, -100 = all killed)
# Experimental setup: 10 µM unless noted
The panel holds about 83,000 compounds, 20% with a hit somewhere; the sample as a whole holds those more often.
Everything with growth lower than 30% is Not satisfied; everything else, including exactly 30%, is Satisfied.

Check out these entries, answers already filled in.
Threshold query (growth >= 30%) on `N/C(=N\c1nc2ccccc2s1)NC(=O)Nc1ccccc1Cl` Not satisfied

One more molecule: `COc1cc(Cl)cc(-c2nn(-c3cccc(NC(=O)Nc4cccc(C(F)(F)F)c4)c3)cc2-c2ccncc2)c1` Not satisfied

Also `O=c1c2cc(F)ccc2sc2c(N3CCNCC3)nc3ccc(F)cc3c12` ? Not satisfied

New cases:
growth >= 30% for `c1ccc2c(NCCCN3CCOCC3)c3oc4ccccc4c3nc2c1` ? Not satisfied

Ok, now `O=S(=O)(Nc1ncccn1)c1ccc(Nc2ccc3nnc(-c4ccncc4)n3n2)cc1` Satisfied

What about this molecule? COc1cc2c(cc1OC)N(CCO)C1=C(C(=O)OC1)C2c1ccc(Cl)c(Cl)c1 (centres undefined) Satisfied

Also `O=c1c2c(=NCCCN3CCCC3)cc3c(=O)n(CCCN4CCCC4)c(=O)c4c(NCCCN5CCCC5)cc(c(O)n1CCCN1CCCC1)c2c4-3` ? Not satisfied

# iterate: `O=[N+]([O-])c1ccc(Sc2cccc[n+]2[O-])c2nonc12` Satisfied

---

# Test system: MDA-MB-468 breast
# Test summary: NCI-60 one-dose screen, 48 h (100 = growth as untreated, 0 = no growth, -100 = all killed)
# Experimental setup: 10 µM unless noted
Compounds without any hit were thinned out: in the full panel of roughly 83,000, 20% have a hit.
Rule: measured growth below 80% gets class 1; anything equal to or greater than 80% gets class 0.

Consider the following illustrative entries.
Problem: For the compound `Cn1cc(-c2nc(-c3c[nH]c4ncccc34)cs2)c2cc(F)ccc21` , is growth under 80%? class 1

Please do the same for `O=C(CN1CCN(c2ncnc3c2cnn3-c2ccccc2)CC1)Nc1ccc(Cl)cc1` as well. class 1

Another compound to check: `Nc1nc(N)c2cc(Sc3ccc4ccccc4c3)ccc2n1` class 1

Further cases:
hey, is growth for `NS(=O)(=O)c1ccc(Nc2nc(SCC(=O)c3ccc(Cl)cc3)nc3ccccc23)cc1` lower than 80% or not? class 0

Param item: Oc1c(C(Nc2cccc3ccccc23)c2ccccc2)ccc2cccnc12 (stereo unspecified) class 1

Same question for `O=C(/C=C/c1cn(-c2ccccc2)nc1-c1ccc(Cl)cc1)c1cc2ccccc2oc1=O` please. class 1
